Listed below: Emin (rat M4) values for each entry.
target.desc: Rat M4 (Rattus norvegicus, UniProt P08485)
Construct: expressed in transfected cells; host or cells: CHO-K1 (ATCC), stably expressing M4 and Gqi5
Sequence (P08485 whole entry): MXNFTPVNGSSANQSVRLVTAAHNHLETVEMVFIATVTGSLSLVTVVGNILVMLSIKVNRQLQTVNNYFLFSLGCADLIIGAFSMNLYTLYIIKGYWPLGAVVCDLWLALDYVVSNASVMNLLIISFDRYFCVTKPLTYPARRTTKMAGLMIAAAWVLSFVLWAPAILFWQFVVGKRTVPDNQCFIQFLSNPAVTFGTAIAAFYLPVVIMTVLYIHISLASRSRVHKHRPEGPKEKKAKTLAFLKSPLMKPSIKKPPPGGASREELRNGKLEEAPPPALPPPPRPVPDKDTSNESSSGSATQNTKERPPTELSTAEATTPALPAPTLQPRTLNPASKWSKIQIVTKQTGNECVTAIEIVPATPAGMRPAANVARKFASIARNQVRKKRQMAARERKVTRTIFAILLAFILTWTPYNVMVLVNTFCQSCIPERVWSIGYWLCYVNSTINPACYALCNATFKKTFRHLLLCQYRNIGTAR
measurement.description: mAChR M4 cell-based functional calcium flux assay (rat M4/Gqi5/CHO cells)
stated.conditions: % ACh maximum at 30 μM
The figure you give is taken to be in %; do not add the unit.

• CC(C)(C)/C=C/c1ccc(NCC2CC23CCN(CCC(C)(C)C)CC3)nn1 (centres unmarked) [Compound 91] = 5
• Cc1ccsc1-c1ccc(NCC2CC23CCN(CCC(C)(C)C)CC3)nn1 (centres unmarked) [Compound 42] = 2.94
• CC(C)(C)CCN1CCC2(CC1)C[C@@H]2CNc1ccc(-c2cc(F)ccc2Cl)nn1 [Compound 66] = 3.95
• Cc1nn(C)cc1-c1ccc(NCC2CC23CCN(Cc2ccccc2)CC3)nn1 (centres unmarked) [Compound 58] = 11.8

(Q) Looking for the measured Emin (rat M4) of O=C(Nc1ccc(-c2cc(F)ccc2Cl)nn1)C1CC12CCN(CC1CC3C=CC1C3)CC2 (centres unmarked) [Compound 18] , can you help?
(A) 4.72

(Q) Looking for the measured Emin (rat M4) of Fc1ccc(Cl)c(-c2ccc(NC[C@@H]3CC34CCN(CC3CCCCCC3)CC4)nn2)c1 [Compound 109] , can you help?
(A) 3

(Q) Looking for the measured Emin (rat M4) of Cc1nn(C)cc1-c1cnc(NCC2CC23CCN(CCC(C)(C)C)CC3)cn1 (centres unmarked) [Compound 23] , can you help?
(A) 4.71

(Q) Looking for the measured Emin (rat M4) of Cc1nn(C)c(C)c1-c1ccc(NCC2CC23CCN(CCC(C)(C)C)CC3)nn1 (centres unmarked) [Compound 36] , can you help?
(A) 4.52

---

target.desc: UniProt P08173
Sequence (P08173 1-479): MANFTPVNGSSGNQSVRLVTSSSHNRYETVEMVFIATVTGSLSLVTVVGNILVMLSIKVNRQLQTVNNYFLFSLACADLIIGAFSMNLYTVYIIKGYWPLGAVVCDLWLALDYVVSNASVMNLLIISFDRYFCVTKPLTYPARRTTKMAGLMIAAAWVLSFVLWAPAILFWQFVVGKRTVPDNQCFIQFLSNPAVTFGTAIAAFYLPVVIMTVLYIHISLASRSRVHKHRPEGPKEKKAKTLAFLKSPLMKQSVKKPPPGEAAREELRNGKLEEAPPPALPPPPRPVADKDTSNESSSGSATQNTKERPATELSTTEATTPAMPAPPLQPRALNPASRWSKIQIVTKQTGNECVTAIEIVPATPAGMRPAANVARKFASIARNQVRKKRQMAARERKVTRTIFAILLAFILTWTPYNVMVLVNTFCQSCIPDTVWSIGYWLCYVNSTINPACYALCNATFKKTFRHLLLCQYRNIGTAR
measurement.description: mAChR M4 cell-based functional calcium flux assay (human M4/Gqi5/CHO cells)
stated.conditions: decrease of the response to an EC80 concentration of acetylcholine
Label key: true (1) means IC50 under 20 nM; false (0) means IC50 of 20 nM or more.

Here's what some known entries look like.
* Cc1nn(C)cc1-c1cnc(NCC2CC23CCN(CC(C)C(C)(C)C)CC3)cn1 (stereo not drawn) [Compound 22] | false (0)
* c1ccc(-c2cnc(NCC3CC34CCN(CC3CCOCC3)CC4)s2)cc1 (stereo not drawn) [Compound 73] | false (0)
* Cc1nn(C)cc1-c1nnc(NCC2CC23CCN(CC2CCOCC2)CC3)c2ccccc12 (stereo not drawn) [Compound 93] | true (1)
* CC(C)(C)CCN1CCC2(CC1)C[C@H]2CNc1ccc(-c2cc(F)ccc2Cl)nn1 [Compound 64] | true (1)
* Cc1nn(C)cc1-c1ccc(NCC2CC23CCN(CCC(C)(C)C)CC3)nc1 (stereo not drawn) [Compound 6] | false (0)

(Q) # TODO verify IC50 < 20 nM strictly for this molecule: c1cc(N2CCOCC2)nnc1NCC1CC12CCN(CC1CCCCC1)CC2 (stereo not drawn) [Compound 83]
(A) false (0)

(Q) # TODO verify IC50 < 20 nM strictly for this molecule: CC(=O)Nc1ccc(-c2ccc(NC[C@@H]3CC34CCN(CC3CCCCCC3)CC4)nn2)cc1 [Compound 119]
(A) true (1)

(Q) # TODO verify IC50 < 20 nM strictly for this molecule: CC(C)(C)CCN1CCC2(CC1)CC2CNc1ccc(-c2ccccc2OC(F)(F)F)nn1 (stereo not drawn) [Compound 48]
(A) false (0)

(Q) # TODO verify IC50 < 20 nM strictly for this molecule: CC(C)(C)CCN1CCC2(CC1)CC2CNc1ccc(-c2ccc3ncccc3c2)nn1 (stereo not drawn) [Compound 45]
(A) true (1)

(Q) # TODO verify IC50 < 20 nM strictly for this molecule: CC(C)(C)CCN1CCC2(CC1)CC2CNc1ccc(-c2cc(F)ccc2Cl)cn1 (stereo not drawn) [Compound 69]
(A) false (0)

(Q) # TODO verify IC50 < 20 nM strictly for this molecule: O=C(Nc1ccc(-c2cc(F)ccc2Cl)nn1)C1CC12CCN(CC1CC3C=CC1C3)CC2 (stereo not drawn) [Compound 18]
(A) false (0)

(Q) # TODO verify IC50 < 20 nM strictly for this molecule: CC(=O)Nc1ccc(-c2ccc(NC[C@H]3CC34CCN(CC3CCCCC3)CC4)nn2)cc1 [Compound 125]
(A) false (0)

(Q) # TODO verify IC50 < 20 nM strictly for this molecule: c1cc(N2CCOCC2)nnc1NCC1CC12CCN(CC1CCOCC1)CC2 (stereo not drawn) [Compound 85]
(A) false (0)
